Assayed Target: RSV F protein of subtype B (18537) on recombinant mKate-RSV (Respiratory syncytial virus subtype B …, UniProt P13843 26-574)
Assay Method Text: cell-based or functional assay
Simple rule here: Neut IC50 (µg/ml) subtype B less than 0.3 µg/mL is t, otherwise f.

INSERT INTO results (binder, group) VALUES
  ('ADI-14548 (antibody, V domains shown) VH: EVQLVESGGGLVQPGGSLRLSCAASGFSFSTSWMSWVRQAPGKGLEWLANIKEDGSKKIYVDSVKGRFSISRDNAKNSLYLQMTSLRAEDTAVYYCARDVWGWELVGWLDPWGQGTLVTVSS VL: SYELTQPPSVSVAPGKTASITCGGSNIGSRSVHWYQQKPGQAPVLVVYEDHDRPSGIPERFSGSNSGNTATLTISRVEAGDEADYYCQVWDSSRDHVVFGGGTKVTVL', 't'),
  ('ADI-14529 (antibody, V domains shown, IgG; also called Antibody Number 89) VH: EVQLVESGGGLVKPGGSLRLSCAASGFIFRNAWMSWVRQAPGKGLEWVGRIKRTSEGGSVDYATPVQGRFSISRDDSRNTLYLQMNSLETDDTAVYYCSTGPPYSYFDSSGYSVVDYWGQGTLVTVSS VL: QSVVTQPPSVSGTPGQRVTISCTGSSSNIGTPFDVHWYQQIPETAPKLIISGGFSRPSGVPDRFSGSQSGTSASLAISGLRSEDEGDYYCAAWDDSLSGPVFGGGTKLTVL', 'f'),
  ('ADI-14554 (antibody, V domains shown, IgG) VH: QVQLVQSGGGLVKPGGSLRLSCAASGFAFSNAWMSWVRQAPGKGLEWLGRIKSETDGGTTDYAAPVKGRFSISRDDSRNTLYLQMNSLESEDTAVYYCTTGPPYKYFDSTGYSVVDYWGQGTLVTVSS VL: SYELTQPPSASGTPGQRVTISCSGSSSNIGSNYVYWYQQLPGTAPRLLIYSTNQRPSGVPDRFSGSQSGTSASLAISGLRSDDEADYYCAAWDDRMSGPVFGGGTKLTVL', 'f');

# input for lookup
Is it true that Neut IC50 (µg/ml) subtype B reported for ADI-14545 (antibody, V domains shown) VH: EVQLVESGGGLVKPGGSLRLSCAASGFTFSNAWMSWVRQAPGKGLEWVGRVKSKSKGGTTHYAEAVKGRFTISRDDSKNTLYLQMQSLKTEDTAVYYCTSHAYNSDWFVTTDYYYYMDVWGKGTTVTVSS VL: DIVLTQSPSSLSASVGDRVTFTCRASQSISNYLNWYQQKPGKAPKVLIYGASNLLSGVPSRFIGSGSGTDFTLTINSLQPEDFATYYCQQCYSAPITFGQGTRLEIK is less than 0.3 µg/mL?
t
